Target: recombinant rhinovirus 3C protease, serotype 14 (Human rhinovirus 14, UniProt P03303)
Construct: Recombinant rhinovirus 3C proteases; made in house
Sequence (P03303 1538-1719): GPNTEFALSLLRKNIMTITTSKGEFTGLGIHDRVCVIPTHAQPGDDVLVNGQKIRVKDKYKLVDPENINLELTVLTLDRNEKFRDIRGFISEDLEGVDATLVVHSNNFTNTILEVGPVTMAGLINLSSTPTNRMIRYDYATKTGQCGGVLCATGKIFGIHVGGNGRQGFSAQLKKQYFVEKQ
Experiment: Inhibition of rhinovirus 3C protease (FRET assay), serotype 14
Type: biochemical
Endpoint Label: pKi
Lab note — pKi values are minus log10 of concentrations in M.

Example results:
entry_smiles=C#CC(=O)[C@H](CNC(C)=O)NC(=O)[C@H](Cc1ccccc1)NC(=O)[C@H](CC(C)C)NC(=O)OCc1ccccc1 tested_target="recombinant rhinovirus 3C protease, serotype 14 (Human rhinovirus 14, UniProt P03303)" observed_value=7.19
entry_smiles=CC(=O)NC[C@H](NC(=O)[C@H](Cc1ccccc1)NC(=O)[C@H](CC(C)C)NC(=O)OCc1ccccc1)C(C)=O tested_target="recombinant rhinovirus 3C protease, serotype 14 (Human rhinovirus 14, UniProt P03303)" observed_value=3.86
entry_smiles=CC(C)C[C@H](NC(=O)OCc1ccccc1)C(=O)N[C@@H](Cc1ccccc1)C(=O)N[C@@H](C[C@@H]1CCNC1=O)C(=O)c1nccs1 tested_target="recombinant rhinovirus 3C protease, serotype 14 (Human rhinovirus 14, UniProt P03303)" observed_value=6.15
entry_smiles=CNC(=O)C(=O)[C@H](CNC(C)=O)NC(=O)[C@H](Cc1ccccc1)NC(=O)[C@H](CC(C)C)NC(=O)OCc1ccccc1 tested_target="recombinant rhinovirus 3C protease, serotype 14 (Human rhinovirus 14, UniProt P03303)" observed_value=4.70

Query: Given the compound `Cc1cc(C(=O)N[C@H](C(=O)N[C@@H](Cc2ccc(F)cc2)C(=O)N[C@@H](C[C@@H]2CCNC2=O)C(=O)c2nc3ccccc3s2)C(C)C)no1` , write its reported pKi.
Response: 8.35

Query: Given the compound `CSCC(=O)[C@H](CCC(N)=O)NC(=O)[C@H](Cc1ccccc1)NC(=O)[C@H](CC(C)C)NC(=O)OCc1ccccc1` , write its reported pKi.
Response: 4.30

Query: Given the compound `CC(=O)NC[C@H](NC(=O)[C@H](Cc1ccccc1)NC(=O)[C@H](CC(C)C)NC(=O)OCc1ccccc1)C(=O)c1nccs1` , write its reported pKi.
Response: 4.62

Query: Given the compound `CC(C)C[C@H](NC(=O)OCc1ccccc1)C(=O)N[C@@H](Cc1ccccc1)C(=O)N[C@@H](C[C@@H]1CCNC1=O)C(=O)c1cc2ccccc2s1` , write its reported pKi.
Response: 5.33

Query: Given the compound `CC(=O)NC[C@@H](NC(=O)[C@H](Cc1ccccc1)NC(=O)[C@H](CC(C)C)NC(=O)OCc1ccccc1)C(=O)C(=O)N1CCCCC1` , write its reported pKi.
Response: 4.97

Query: Given the compound `CC(=O)NC[C@H](NC(=O)[C@H](Cc1ccccc1)NC(=O)[C@H](CC(C)C)NC(=O)OCc1ccccc1)C(=O)c1ccccn1` , write its reported pKi.
Response: 4.10

Query: Given the compound `CC(C)C[C@H](NC(=O)OCc1ccccc1)C(=O)N[C@@H](Cc1ccccc1)C(=O)N[C@@H](C[C@@H]1CCNC1=O)C(=O)c1ccccn1` , write its reported pKi.
Response: 6.77

Query: Given the compound `CC(C)C[C@H](NC(=O)OCc1ccccc1)C(=O)N[C@@H](Cc1ccccc1)C(=O)N[C@@H](C[C@@H]1CCNC1=O)C(=O)c1nc2ccccc2s1` , write its reported pKi.
Response: 7.19
